molecular target: Synaptosomen-Aufnahme von Serotonin (Rattus norvegicus); construct: Durch differentielle Zentrifugation wurden Synaptosomen erhalten; from tissue; host or cells: rat brain cortex synaptosomes; experiment: Inhibition of serotonin uptake in rat brain synaptosomes (cortex, 3H-serotonin); type: biochemical, Ratten; conditions: Quotient IC50 Referenzverbindung / IC50 Beispielverbindung
Sequence (P31652 whole entry): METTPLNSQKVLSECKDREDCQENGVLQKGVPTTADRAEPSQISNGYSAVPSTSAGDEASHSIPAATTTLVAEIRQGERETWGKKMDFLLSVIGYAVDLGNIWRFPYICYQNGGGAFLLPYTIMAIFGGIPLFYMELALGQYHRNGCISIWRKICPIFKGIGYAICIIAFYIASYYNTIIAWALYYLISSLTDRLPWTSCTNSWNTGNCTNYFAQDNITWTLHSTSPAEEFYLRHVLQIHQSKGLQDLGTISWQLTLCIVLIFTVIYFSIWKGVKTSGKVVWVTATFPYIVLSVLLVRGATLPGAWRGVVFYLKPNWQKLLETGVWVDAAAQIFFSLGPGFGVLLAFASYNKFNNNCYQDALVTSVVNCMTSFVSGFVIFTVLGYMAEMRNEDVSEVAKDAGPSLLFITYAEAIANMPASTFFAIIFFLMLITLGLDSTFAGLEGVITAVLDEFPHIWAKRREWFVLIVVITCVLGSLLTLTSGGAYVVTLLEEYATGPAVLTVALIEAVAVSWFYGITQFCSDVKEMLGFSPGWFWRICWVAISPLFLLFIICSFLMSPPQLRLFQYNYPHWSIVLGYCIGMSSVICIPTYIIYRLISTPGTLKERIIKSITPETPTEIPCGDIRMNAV
Kindly return 1 if reported Hemmung der Synaptosomen-Aufnahme von Serotonin r.W. (relative Wirksamkeit) is no lower than 60; return 0 if it is lower.

chemical.structure	label.class
CCc1ccc(-n2ccc(=N)cn2)cc1.Cl	0
Cc1ccc(-n2ccc(=N)cn2)cc1Cl	0
N=c1ccn(-c2ccc(Cl)c(Cl)c2)nc1	1
N=c1ccn(-c2ccc(C(F)(F)F)c(Cl)c2)nc1	1
COc1cc(-n2ccc(=N)cn2)ccc1C.Cl	0
N=c1ccn(-c2ccc(Br)c(Cl)c2)nc1	1
N=c1ccn(-c2ccc(Br)c(Br)c2)nc1	1
Cc1cc(-n2ccc(=N)cn2)ccc1Cl	0
N=c1ccn(-c2ccc(Cl)c(Br)c2)nc1	1
Cc1ccc(-n2ccc(=N)cn2)cc1F	0
N=c1ccn(-c2ccc(Br)cc2)nc1	0
